assay: NCI Yeast Anticancer Drug Screen. Data for the rad50 strain (AID 155);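 further: 0% = growth of vehicle-only cultures of the same strain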; details: S. cerevisiae rad50 strain growth inhibition; at 50.0 µM; stronger effect = higher value
This is part of a sample that, as a whole, favours compounds with a hit. Of some 79,000 tested, about 15% had one in any assay. *1 amine or outer side, *2 acyl side, *3 side chain or, on linkers, in order; H or OH if unused. Where a SMILES comes first, the peptide text is derived from it. Bridges are numbered along the chain shown (N, C = ends). Roman numbers before positions name the chains, in order. [ ]: non-standard residue; d: D form. Actinocin(1to9) = Cc1c2oc3c(C)ccc(C(=O)[*:2])c3nc-2c(C(=O)[*:1])c(N)c1=O; NMeY = CN[CH](Cc1ccc(O)cc1)C(=O)O; Sar = CNCC(=O)O

COMPOUND	growth inhibition, %
COc1ccc(C2c3cc4c(cc3OC(Nc3ccccc3)C2C)OCO4)cc1 (configuration not stated)	9
OCC(O)CNc1ncnc2ccccc12 (configuration not stated)	-1.65
Clc1ccc(-c2cc(-c3ccc(Cl)cc3)n(-c3ccccc3)n2)cc1	-17.5
Nc1cccc(Cl)c1C(=O)O	-28.1
COC(=O)C(=O)C(C(C)=O)C(=O)C(=O)Nc1ccc(C)cc1C (configuration not stated)	19.1
COc1ccc(CC2C(=O)OC(C)C(NC(=O)c3c4nc5c(C(=O)NC6C(=O)NC(C(C)C)C(=O)N7CCCC7C(=O)N(C)CC(=O)N(C)C(Cc7ccc(OC)cc7)C(=O)OC6C)ccc(C)c5oc-4c(C)c(=O)c3N)C(=O)NC(C(C)C)C(=O)N3CCCC3C(=O)N(C)CC(=O)N2C)cc1 (configuration not stated) (I: TVP[Sar][NMeY](Me) / II: TVP[Sar][NMeY](Me); ester I:1-I:C, II:1-II:C; linker I:N-II:N via Actinocin(1to9); configuration not given here)	-3
NC(=O)NNCc1ccccc1	-9.35
COc1ccc(CCN=C(N)CCl)cc1	11.8
CN(C)C=Nc1ccn(CCO)c(=O)n1	21.6
CN(C)Cc1c[nH]c2nc[nH]c(=O)c12	-1.3
O=C1NCC/C1=C\c1ccccc1	-7.2
NC(=O)C1C=Cc2ccccc21 (configuration not stated)	-6.1
CC(=O)OC1COC(Cl)C(OC(C)=O)C1OC(C)=O (configuration not stated)	-4.95
COC1CC(NC(C)=O)C(OC(C)=O)C(C)O1 (configuration not stated)	-1.5
COC1(OC)C2(Cl)CCC1(Cl)C(OC(C)=O)C2 (configuration not stated)	-21.4
Brc1cccc(Br)n1	-6.45
CCCCCCCCCCCCCCCCCC(=O)NCC[N+](C)(C)C	99
CCCCCCCCCCS(C)(=O)=O	-19.4
O=C(COc1cc(Cl)c(Cl)cc1Cl)Nc1c(Cl)cc(Cl)cc1Cl	2.5
COc1cc2c(c(OC)c1OC)CCC1(C)C(=O)NN=C21 (configuration not stated)	-18.1
CN(c1ccccc1)c1nc(Cl)c(Cl)c(Cl)n1	-0.2
O=C(CSc1nc2[nH]ncc2c(=O)[nH]1)c1ccc(Cl)cc1	-37.2
CC1CCCCNC1=S (configuration not stated)	-6.95
NC(=O)CC(NC(=O)C(F)(F)F)C(=O)O (configuration not stated)	-15.3
CCOC(=O)c1c(SCCO)n(-c2ccccc2)c(=S)n(-c2ccccc2)c1=O	-22.7
C=Cc1cc2c(cc1O)CC[C@@H]1[C@@H]2CC[C@]2(C)[C@@H](O)CC[C@@H]12	17.4
COC(=O)C1(O)CCC(C)CC1 (configuration not stated)	14.4
CSCCC(C(=O)O)N(C)C (configuration not stated)	-4.3
CN(CC(=O)c1ccc(I)cc1)Cc1ccccc1	28.1
C[n+]1cccc(/C=C/C(=O)Nc2ccccc2)c1	5.8
O=C(Nc1ccc(Cl)cc1)P(=O)(O)c1ccccc1	-11.8
CC(=O)C1CC(CCC2([N+](=O)[O-])CCC(C)(O)C(C(C)=O)C2)([N+](=O)[O-])CCC1(C)O (configuration not stated)	3.3

* * *

# growth inhibition per record follows
test: NCI Yeast Anticancer Drug Screen. Data for the rad50 strain (AID 155);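 further: 0% = growth of vehicle-only cultures of the same strain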; conditions: S. cerevisiae rad50 strain growth inhibition; at 50.0 µM; stronger effect = higher value
Compounds without any hit were thinned out: in the full panel of roughly 79,000, 15% have a hit.

COMPOUND	growth inhibition, %
NNC(=O)C(=O)N/N=C(\CCC(=O)Nc1ccc(Cl)cc1)Cc1nc2ccccc2s1	28.2
COC(=O)C(O)c1ccc(C(C)C)cc1 (centres undefined)	-34.5
Nc1nc2c(C(=O)c3cccs3)nnn2c2cccc(Cl)c12	-21.1
COc1ccc(OC)c(Cc2ccc(NC(C)=O)cc2)c1	4.75
Cc1ccc(-c2cc(=O)c3cc(C)c(C)c(C(=O)O)c3o2)cc1C	11.6
CC(=O)NC(c1ccccc1)c1c(O)ccc2ccccc12 (centres undefined)	26.6
CC(C)(C)[C@@H]1NC(=O)CN1C(=O)OCc1ccccc1	-22.1
C=CCOC(=O)NC1C(OC(C)[C@@H](NC(=O)OCc2ccccc2)C(=O)OC(C)(C)C)OC(COC(C)=O)C(OC(C)=O)C1OC(C)=O (some centres undefined)	-26.9
COC1=C(c2ccccc2)P(=O)(Cc2ccccc2)C(C)C1 (centres undefined)	-6.95
CCOC(=O)C1=C(O)c2c(OC)ccc(OC)c2C(=O)C1=O	-23.6
COc1cc(C)c(O)c(C)c1C	-1.9
O=C(Nc1ccc(F)c([N+](=O)[O-])c1)N(Cc1ccccc1)c1ccccc1	8.05
CCCOC(=O)OCCC	-9.8
O=c1[nH]nc(Cc2ccccc2)n1/N=C/c1cccnc1	28.8
CC1CN(C(=O)Nc2ccc([N+](=O)[O-])cc2)CC(C)O1 (centres undefined)	-16.1
CC1c2ccc3ccccc3c2C(=O)c2cccc(Cl)c21 (centres undefined)	0.45
COc1cc2c(c3c1/c(=N\N=c1/c4ccccc4n(C)c4c5c(cc(OC)c14)OC(C)(C)C=C5)c1ccccc1n3C)C=CC(C)(C)O2	70
CC(C)(CCC(=O)O)C(=O)O	-4.15
O=C1CN(/N=C/c2ccc(-c3ccc(F)cc3)o2)C(=O)N1	10.4
Cc1nn(-c2ccccc2)c(SC(C)(C)C)c1C=NCCN=Cc1c(C)nn(-c2ccccc2)c1SC(C)(C)C	28.6
CCCCCCCCCCCCCCCCCC(=O)OCC1OC(OC)C(NC(=O)N(CCCl)N=O)C(O)C1O (centres undefined)	16.3
Cc1ccc(N=NNc2ccccc2)cc1	-7.7
CN(C)c1c(F)c(F)c(N=Nc2ccccc2)c(F)c1F	0.75
CCOc1nc(N)nc(C)c1N=Nc1ccccc1C	18.8

* * *

assay: NCI Yeast Anticancer Drug Screen. Data for the bub3 strain (AID 167); settings: S. cerevisiae bub3 mutant strain, at 50.0 µM, stronger effect = higher value
This is part of a sample that, as a whole, favours compounds with a hit. Of some 79,000 tested, about 15% had one in any assay. Where a SMILES comes first, the peptide text is derived from it. The star is where a group is joined. Boc = CC(C)(C)OC(=O)*; OSu = O=C1CCC(=O)N1O*
# growth inhibition per record follows

COMPOUND	growth inhibition / %
Cc1nc2sccn2c1C(=O)NC(=O)Nc1ccc(Cl)cc1	-9.8
COC1OC(COC(c2ccccc2)(c2ccccc2)c2ccccc2)C(OS(=O)(=O)c2ccc(C)cc2)C(OC(=O)c2ccccc2)C1OC(=O)c1ccccc1 (configuration not stated)	0.3
Cc1nn2c(=O)n(-c3cccc(-n4nnc5c(-c6ccccc6)c(C)nn5c4=O)c3C)nnc2c1-c1ccccc1	43.2
CC1(C)C2CCC(CCOC(=O)COc3ccc(Cl)cc3Cl)C1C2 (configuration not stated)	5
NC(Cc1cccs1)C(=O)O (configuration not stated)	-2.5
CC1=C(/C=C/Cl)CC(Cl)C(C)(Cl)C1 (configuration not stated)	-0.45
CSc1ccc(NC(=O)c2ccc([N+](=O)[O-])cc2)cc1	25.9
COc1ccc(C(=O)/C=C/c2ccc(OC)c(OC)c2OC)c(O)c1	16.6
COc1ccc(-c2cc(=O)c3ccc(O)cc3o2)c(OC)c1OC	-2.65
CC(C)(C)OC(=O)NC(Cc1ccc(O)cc1)C(=O)NC(CCCCN)C(=O)NC(Cc1ccc(O)cc1)C(=O)NC(CCCCN)C(=O)ON1C(=O)CCC1=O (configuration not stated) (Boc-YKYK-OSu; configuration not given here)	-2.8
O=CC(=C\c1cccs1)/C(C=O)=C\c1cccs1	99.4
Brc1cccc(Br)n1	2.1

* * *

# growth inhibition per record follows
experiment: NCI Yeast Anticancer Drug Screen. Data for the mlh1 rad18 strain (AID 175); conditions: S. cerevisiae mlh1 rad18 strain growth inhibition; at 50.0 µM; stronger effect = higher value
About 79,000 compounds went through this panel and 15% of them were active in at least one assay; those are over-represented in the sample as a whole.
QUANTITY_NAME: growth inhibition (%)

MOLECULE	QUANTITY_NAME	QUANTITY_UNIT	TEST_VALUE
CCCCOC(=O)NC(=O)c1cc2cccc(OC)c2oc1=O	growth inhibition	%	10.2
O=c1[nH]nc(SCc2ccccc2)c2nncn12	growth inhibition	%	20.1
CCc1c(C)nc2[nH]ncn2c1=O	growth inhibition	%	6.7
COC1=CC(=O)c2ccc(C(C)C)cc2C1(C)C1=NC(C)(C)CO1 (configuration not stated)	growth inhibition	%	-9.8
O=[N+]([O-])c1ccccc1S(=O)(=O)c1cc(Cl)cc2c1NCCC2	growth inhibition	%	30.9
Cc1[nH]c2ccccc2c1C1=CC(=O)c2ccccc2C1=O	growth inhibition	%	13.8
[Mn+2].[Mn+2].c1ccc2c(c1)-c1nc-2nc2[n-]c(nc3nc(nc4[n-]c(n1)c1ccccc41)-c1ccccc1-3)c1cc3c4nc5nc(nc6[n-]c(nc7nc(nc([n-]4)c3cc21)-c1ccccc1-7)c1ccccc61)-c1ccccc1-5	growth inhibition	%	21.8
C[N+]1(C)C2Cc3ccccc3C1Cc1ccccc12	growth inhibition	%	-57
COc1cc2c(OC)cc1CSCc1sc(C)c(c1Br)CSC2	growth inhibition	%	14.8
CCN(c1ccccc1)S(=O)(=O)c1cc(N)ccc1C	growth inhibition	%	4.55
CC(=O)NC(C)c1ccc2ccccc2c1 (configuration not stated)	growth inhibition	%	11.4
N#CCCN(CCC#N)c1ccc(/C=C2\N=C(CN3C(=O)c4ccccc4C3=O)OC2=O)cc1	growth inhibition	%	7.55
O=C(Nc1ccc(Cl)cc1)/C(Cc1cccc[n+]1[O-])=N\Nc1ccc([N+](=O)[O-])cc1[N+](=O)[O-]	growth inhibition	%	-20.2
O=S(=O)(O)c1ccccc1/C=N\N=C\c1ccccc1S(=O)(=O)O	growth inhibition	%	12.8
Cc1cc2nnn(-c3ncccc3[N+](=O)[O-])c2cc1C	growth inhibition	%	19.4
N#CC(=C1C=CC(=NOC(=O)c2ccccc2)C=C1)c1ccccc1	growth inhibition	%	-6.85
CCc1ccc(NC(=O)CCC(=O)O)cc1	growth inhibition	%	-16.9
Cc1cc(Br)ccc1N=Cc1ccc(C=Nc2ccc(Br)cc2C)cc1	growth inhibition	%	-0.2
O=C(O)CCc1ccc(NC(=O)CCl)cc1	growth inhibition	%	14.7
Nc1cc(=O)[nH]c(N)n1	growth inhibition	%	-21.9
Cc1cc(C)c2[nH]c(=O)c(Br)c(C)c2c1	growth inhibition	%	19.4
CC1=CC(=O)C(C(C)C)=CC1=O	growth inhibition	%	0.5
COC1OC(COC(c2ccccc2)(c2ccccc2)c2ccccc2)C(OS(=O)(=O)c2ccc(C)cc2)C(OC(=O)c2ccccc2)C1OC(=O)c1ccccc1 (configuration not stated)	growth inhibition	%	27.9
C=CCOC(=O)C(F)(F)F	growth inhibition	%	-1.4
Cc1ccc2c(c1)[nH]c(=S)n2C=C1C(=O)NC(=O)NC1=O	growth inhibition	%	-15.4
S=c1nc[nH][nH]1	growth inhibition	%	21.6
C=C(C/C(=C/S(C)=O)c1ccccc1)c1ccccc1 (configuration not stated)	growth inhibition	%	34.4
